# tgt: CIB1 and αIIb interaction (CIB1-GST : F-αIIb peptide) (Homo sapiens)
# Construct: made in house; host or cells: BL-21 plus RIL cells (E. coli)
# Sequence (Q99828 whole entry): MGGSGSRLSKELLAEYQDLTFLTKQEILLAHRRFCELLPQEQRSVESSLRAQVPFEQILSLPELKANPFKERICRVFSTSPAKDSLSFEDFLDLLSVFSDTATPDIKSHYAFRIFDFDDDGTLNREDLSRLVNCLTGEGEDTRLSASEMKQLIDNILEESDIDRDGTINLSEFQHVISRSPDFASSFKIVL
# assay text: FP assay, 1536-well qHTS format (primary and confirmatory screen)
# Assay type: binding
# details: Table S3, confirmatory screen; read-out: IC50 [μM] (confirmatory screen)
measurement label: IC50 (µM)
Field: numeric (µM). Do not append units.

The examples below pair each entry with its known result.
Cc1c(Cc2ccc3ccccc3n2)c2cc(F)ccc2n1CC(=O)O    50.1
O=C(O)C(F)(F)F.O=C1CC(c2ccccc2Cl)c2sc(N3CCOCC3)nc2N1 (stereo not shown)    50.1
O=C(O)C(F)(F)F.O=C(O)c1ccc(-c2ccc3ncnc(N4CCOCC4)c3c2)o1    10

Now look at this entry.
Could you tell me which IC50 is on file for O=C(O)C(F)(F)F.O=C(O)c1ccc(Cc2c(-c3cccc(-c4ccccc4)c3)nn(-c3nc(C(=O)O)cs3)c2O)cc1 ?
50.1

* * *

Catalogue of compounds with associated log10 of IC50
# tgt: GST-CIB1 : F-scrambled peptide (Homo sapiens)
# Construct: made in house; host or cells: BL-21 plus RIL cells (E. coli)
# Sequence (Q99828 whole entry): as above
# assay text: FP scrambled-peptide counter screen, 1536-well format
# Assay type: binding
# details: counterscreen; read-out: IC50 [μM] (counterscreen)
Field: value | Transform: log10 | Quantity: IC50 | Unit: µM

The examples below pair each entry with its known result.
CN1CCN(c2cccc(Nc3nn4c(=O)c5ccc(Br)cc5nc4s3)c2)CC1.Cl [NCGC00187814-01]    1.70
COc1ccc2c(c[n+](C)c3c4cc5c(cc4ccc23)OCO5)c1OC.[Cl-] [NCGC00015225-03]    1.45
O=C(O)C(F)(F)F.c1ccc(-n2ccc(-c3nnc4n3CCCCC4)c2)cc1 [NCGC00249645-01]    1.95
CCN1C(=O)c2ccccc2[S+]([O-])c2ccc(C(=O)NCc3cccc(F)c3)cc21 (stereo not shown) [NCGC00241657-01]    1.55
Nc1ccc(CNc2ccc(S(=O)(=O)Nc3nccs3)cc2)c(O)c1.O=C(O)C(F)(F)F [NCGC00273962-01]    1.70

Could you tell me which log10 of IC50 is on file for C=C1C(=O)[C@@]23C(CC[C@@H]1[C@H]2O)[C@@]12CO[C@]3(O)[C@@H](O)[C@@H]1C(C)(C)CC[C@@H]2O (stereo partly shown) [NCGC00346595-02] ?
1.20

Lookup CN(C(=O)CN(CCO)CC(=O)N(C)C(C)(C)Cc1ccccc1)C(C)(C)Cc1ccccc1 [NCGC00016382-07]
1.85

Lookup Cl.O=C1c2c(O)ccc(O)c2C(=O)c2c(NCCNCCO)ccc(NCCNCCO)c21 [NCGC00015693-04]
1.30

* * *

# tgt: CIB1 and αIIb interaction (CIB1-GST : F-αIIb peptide) (Homo sapiens)
# Construct: made in house; host or cells: BL-21 plus RIL cells (E. coli)
# assay text: FP assay, 1536-well qHTS format (primary and confirmatory screen)
# Type: binding
# details: qHTS primary screen of LOPAC/NPACT libraries; negative = inhibition
measurement label: Efficacy (%)
Field: numeric (%). Do not append units.

Cc1ccc(-c2c(C(=O)CCl)n(CCCO)c3ncnc(N)c23)cc1 [NCGC00485901-01]    -25
CCCCCN(CCCCC)C(=O)C(CCC(=O)O)NC(=O)c1ccc(Cl)c(Cl)c1 (centres unmarked) [NCGC00162232-03]    -19
CN1CCc2ccccc2Cc2[nH]c3ccccc3c2CC1 [NCGC00015614-05]    -28

Could you tell me which Efficacy (%) is on file for Cc1cc2occ(CN(C)CCN(C)Cc3cn(-c4cccc(C(F)(F)F)c4)c4ccccc34)c(=O)c2cc1C.Cl [NCGC00386701-02] ?
-31

Lookup CCCc1n[nH]c2c1C(c1cc(Cl)cc(Cl)c1O)C(C#N)=C(N)O2 (centres unmarked) [NCGC00402340-02]
-29

Lookup C=C1C(=O)OC2/C=C(\C)CC/C=C(\C)CC(OC(C)=O)C12 (centres unmarked) [NCGC00385946-01]
-21

Lookup CC(=O)N[C@@H](Cc1c[nH]c2ccccc12)C(=O)OCc1cc(C(F)(F)F)cc(C(F)(F)F)c1 [NCGC00024832-04]
-16

Lookup O=C(O)CC1(O)C(=O)Nc2ccccc21 (centres unmarked) [NCGC00385842-01]
-28
